Biological target: T1, human CD300LB on primary human macrophages (human, UniProt A8K4G0 18-201)
T1 sequence: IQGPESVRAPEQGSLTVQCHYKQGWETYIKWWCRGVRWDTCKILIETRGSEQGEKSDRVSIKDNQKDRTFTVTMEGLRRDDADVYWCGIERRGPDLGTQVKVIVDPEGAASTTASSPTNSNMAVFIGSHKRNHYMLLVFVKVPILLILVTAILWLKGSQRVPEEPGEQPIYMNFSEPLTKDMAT
Assay: flow cytometry, primary human macrophages donor 1277, 10 ug/mL antibody, isotype control subtracted
Experimental: Human monocytes from various donors were isolated from whole blood using RosetteSep Human Monocyte Enrichment Cocktail (Stemcell technologies) and Ficoll centrifugation per manufacturer protocols. […] Cells were counted on the day of the experiment and plated at 100,000 cells per well in a round-bottom 96 well plate. […] Samples were immediately analyzed using a BD FACSCanto flow cytometer. The gMFI was calculated using FlowJo software minus the gMFI of the appropriate isotype control.
metric: gMFI (gMFI)

[[record]]
binder = "anti-CD300LB antibody CD-06 (antibody, V domains shown) VH: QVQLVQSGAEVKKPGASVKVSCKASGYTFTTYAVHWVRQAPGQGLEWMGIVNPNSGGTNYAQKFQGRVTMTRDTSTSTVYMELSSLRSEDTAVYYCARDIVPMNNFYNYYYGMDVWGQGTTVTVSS VL: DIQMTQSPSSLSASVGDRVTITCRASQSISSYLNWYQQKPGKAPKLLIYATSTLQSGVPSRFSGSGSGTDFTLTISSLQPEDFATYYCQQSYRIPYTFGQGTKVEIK"
measuredvalue = 24000

